Target: T1, human BLyS (full length, arginine to histidine at position 132) on CHO-K1 cells (human, UniProt Q9Y275 1-285)
T1 construct: also called hBLyS; CHO-K1 hBLyS
T1 sequence (Q9Y275 whole entry R130H): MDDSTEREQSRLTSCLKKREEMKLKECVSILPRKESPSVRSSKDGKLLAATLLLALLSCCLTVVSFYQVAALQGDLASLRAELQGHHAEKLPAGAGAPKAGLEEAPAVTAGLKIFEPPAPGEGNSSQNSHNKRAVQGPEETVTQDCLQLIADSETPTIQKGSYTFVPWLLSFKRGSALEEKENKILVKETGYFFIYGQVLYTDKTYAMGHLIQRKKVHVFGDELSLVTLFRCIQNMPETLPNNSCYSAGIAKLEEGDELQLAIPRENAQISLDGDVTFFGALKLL
Assay: flow cytometry, CHO-K1 hBLyS cells, antibody 0 nM
Catalogue of MFI values
Use MFI as the unit, but write only the number.

Input: Suppose we examine the binder 97A3C2H4 (antibody, V domains shown, Mouse hybridoma monoclonal antibody purified on Protein G) VH: EVKLVESGGGLVQPGGSLKLSCAASGFTFSTYTMSWVRQTPEKRLEWVAYISYGGGSTSYPDTVKGRFTISRDNAKNTLYLQMSSLKSEDTAIYYCTRHVTVVENSMDYWGQGTSVTVSS VL: DILLTQSPDILSVSPGERVSFSCRASQSIGTSIHWYQQRTNGSPRLLIKYVSESFSGTPSRFSGSGSGTAFTLTINSVESEDIADYYCQQTHSWPWTFGGGTKLEIK ; what MFI value has been reported?
Output: 31.2

Input: Could you do the same for 20D1B6E9E5 (antibody, V domains shown, Mouse hybridoma monoclonal antibody purified on Protein G) VH: EVQLQQSVAELVRPGASVKLSCTASDFNIKNTYIHWVKQRPEQGLEWIGRIDPVNGNTKYAPKFQDKATIIVDTYSNTAYLQLSSLASEDTAVYYCARWPITTIVATDWYFDVWGTGTTVTVSS VL: DVLMTQTQLALPVRLGEQASISCRSSQSIVNSNGNTYLEWYLQKPGQSPKLLIYKVSNRFSGVPDRFSGSGSGTDFTLKISRVEAEDLGVYYCFQGSHVPWTFGGGTKLEIK , please?
Output: 31.8

Input: And the next one, 93C6F10D3 (antibody, V domains shown, Mouse hybridoma monoclonal antibody purified on Protein G) VH: EVQLVESGGGLVTPGGSLKLSCVASGFAFSTYGMSWVRQTPERRLEWVAYISGGGGSIYYPDSVKGRFTISRDNAKNILYLQMSSLKSEDTAMYHCTRHPDLLLRYDYALDHWGQGTSVTVSS VL: DIQMTQSPASLSASVGETVTITCRASENIHIYLAWYQQKQGKSPQLLVYNGKTLADGVPSRFSGSGSGTQYSLKINTLQPEDFGNYYCQHFWNSTWTFGGGTKLEIK ?
Output: 31.6
